Measured values drawn from patent US20110105472A1 for this set.

test: logP by HPLC on reversed-phase columns (C 18), method [a], acidic range pH 2.3; format: physicochemical; conditions: pH 2.3
Counter-ions that a name gives are not always drawn.
VALUE_KIND: chromatographic logP

- CC1(Nc2nc(Nc3ccccc3)ncc2Cl)CCC1 [Compound 52]: 2.1

I need chromatographic logP for every entry listed below, if you could help.
1. CC(C)Oc1ccc(Nc2ncc(Cl)c(NC3CCC3)n2)cc1 [Compound 36, hydrochloride]
2. CCCOc1cccc(Nc2ncc(Br)c(NC3CCC3)n2)c1 [Compound 30]
3. FC(F)(F)c1cnc(Nc2ccccc2)nc1NC1CCC1 [Compound 54]

1. 2.21
2. 3.27
3. 3.33

---

assay: logP by LC-MS, method [b], acidic range pH 2.7; type: physicochemical; conditions: pH 2.7
VALUE_KIND: log p

These recorded examples may help you get a feel for the data.
• CCc1cc(Nc2ncc(Cl)c(NC3CCC3)n2)ccc1C [Compound 222] = 2.73[b]
• C=C(C)C(=O)Nc1cccc(Nc2ncc(Cl)c(NC3CCC3)n2)c1 [compound 124] = 1.8[b]
• N#CCC(=O)c1ccc(Nc2ncc(Br)c(NC3CCC3)n2)cc1 [Compound 149] = 2.57[b]

Batch request: log p for each of the following compounds.
1. O=C(c1ccc(Nc2ncc(Br)c(NC3CCC3)n2)cc1)N1CCOCC1 [Compound 191]
2. CNC(=O)c1ccc(Nc2ncc(Cl)c(NC3CCC3)n2)cc1 [Compound 126]

1.75[b]
1.5[b]

Quick request: log p for each listed item, please.
1. Oc1cccc(Nc2ncc(Br)c(NC3CCC3)n2)c1 [Compound 178]
2. CSc1ccc(Nc2ncc(Br)c(NC3CCC3)n2)cc1Cl [Compound 73]
3. CC(=O)N(C)c1ccc(Nc2ncc(Cl)c(NC3CCC3)n2)cc1 [Compound 120]
4. CC(C)(C)NC(=O)Cc1cccc(Nc2ncc(Br)c(NC3CCC3)n2)c1 [Compound 143]
5. O=C1NC(=O)c2cc(Nc3ncc(Br)c(NC4CCC4)n3)ccc21 [compound 22]

1: 1.5[b]; 2: 3.5[b]; 3: 1.64[b]; 4: 2.19[b]; 5: 2.25[b]

Provide log p value for the following compound: CC(=O)Nc1cccc(Nc2ncc(Cl)c(NC3CCC3)n2)c1 [Compound 123]
1.51[b]

---

For each entry below, report its log p value.
assay: logP by LC-MS, method [b], acidic range pH 2.7; assay type: physicochemical; settings: pH 2.7

Solved entries:
• NS(=O)(=O)c1cc(Nc2ncc(Br)c(NC3CCC3)n2)ccc1Cl = 2.02[b]
• O=C1CCCN1c1ccc(Nc2ncc(Br)c(NC3CCC3)n2)cc1 = 1.72[b]

Hi team, please reply with log p for each item in this list.
1. CC(C)C(=O)Nc1ccc(Nc2ncc(Br)c(NC3CCC3)n2)cc1
2. CCN(C(C)=O)c1ccc(Nc2ncc(Br)c(NC3CCC3)n2)cc1
3. COC(=O)Nc1ccc(Nc2ncc(Br)c(NC3CCC3)n2)cc1
4. Cc1nc2cc(Nc3ncc(Br)c(NC4CCC4)n3)ccc2s1

1. 1.83[b]
2. 1.92[b]
3. 1.62[b]
4. 2.11[b]

Dear reader, for each entry below, please note its log p.
1. CCSc1cccc(Nc2ncc(Br)c(NC3CCC3)n2)c1
2. CN(C)C(=O)c1ccc(Nc2ncc(Br)c(NC3CCC3)n2)cc1
3. O=S(=O)(c1cccc(Nc2ncc(Br)c(NC3CCC3)n2)c1)N1CCOCC1
4. CCC(=O)c1ccc(Nc2ncc(Br)c(NC3CCC3)n2)cc1

3.37[b]
1.73[b]
2.46[b]
3.19[b]

For each of the compounds below, note its log p.
1. FC(F)C(F)(F)Oc1ccc(Nc2ncc(Br)c(NC3CCC3)n2)cc1
2. CC1(C(=O)Nc2ccc(Nc3ncc(Cl)c(NC4CCC4)n3)cc2)CC1
3. CCSc1cccc(Nc2ncc(Cl)c(NC3CCC3)n2)c1
4. CCOC(=O)Nc1ccc(Nc2ncc(Br)c(NC3CCC3)n2)cc1

1. 3.1[b]
2. 1.87[b]
3. 3.15[b]
4. 1.9[b]

Need log p for each of these compounds.
1. O=C(Nc1cccc(Nc2ncc(Br)c(NC3CCC3)n2)c1)c1ccco1
2. CN(C)S(=O)(=O)Oc1ccc(Nc2ncc(Br)c(NC3CCC3)n2)cc1

["1.94[b]", "2.46[b]"]

---

assay: logP by LC-MS, method [b], acidic range pH 2.7; assay type: physicochemical; conditions: pH 2.7
VALUE_KIND: log p

- CC(=O)c1cccc(Nc2ncc(C(F)(F)F)c(NC3CCC3)n2)c1 [Compound 227]: 3.24[b]
- O=C(Nc1ccc(Nc2ncc(Br)c(NC3CCC3)n2)cc1)C(F)(F)F [Compound 95]: 2.21[b]

Quick request: log p for each listed item, please.
1. O=C(NC1CC1)c1cccc(Nc2ncc(Br)c(NC3CCC3)n2)c1 [Compound 180]
2. CC(C)(C)c1cccc(Nc2ncc(Cl)c(NC3CCC3)n2)c1 [compound 255]

1. 1.78[b]
2. 3.26[b]

I have 2 compounds here; please give me log p for each one.
1. CC(=O)N1CCc2cc(Nc3ncc(Br)c(NC4CCC4)n3)ccc21 [Compound 17]
2. CS(=O)(=O)c1cccc(Nc2ncc(C(F)(F)F)c(NC3CCC3)n2)c1 [Compound 264]

1.68[b]
2.76[b]

---

test: logP by HPLC on reversed-phase columns (C 18), method [a], acidic range pH 2.3; format: physicochemical; details: pH 2.3
VALUE_KIND: log p

• CC(C)c1ccc(Nc2ncc(Cl)c(NC3CCC3)n2)cc1.Cl [Compound 2-5] = 2.74^[a]
• CC(C)(C)OC(=O)N1CCN(c2ccc(Nc3ncc(Cl)c(NC4CCC4)n3)cc2)CC1 [compound 28] = 2.73[a]
• CC(=O)c1cccc(Nc2ncc(Cl)c(NC3CCC3)n2)c1.Cl [Compound 2-4] = 2.04^[a]
• O=C1CCCCCN1c1cccc(Nc2ncc(Cl)c(NC3CCC3)n2)c1 [Compound 216] = 1.96[a]
• CN(c1nc(Nc2ccccc2)ncc1Cl)C1CCC1 [compound 245] = 3.32[a]

Now for another entry.
Name the recorded log p of the item CSc1cccc(Nc2ncc(C(F)(F)F)c(NC3CCC3)n2)c1 [Compound 57] in your answer.
4.05[a];

---

assay: logP by LC-MS, method [b], acidic range pH 2.7; type: physicochemical; conditions: pH 2.7
VALUE_KIND: log p

Below, 6 compounds whose answers are already recorded.
• O=C1COc2ccc(Nc3ncc(Br)c(NC4CCC4)n3)cc2N1 = 1.61[b]
• O=C1COCCN1c1ccc(Nc2ncc(Br)c(NC3CCC3)n2)cc1 = 1.53[b]
• OC(c1cccc(Nc2ncc(Br)c(NC3CCC3)n2)c1)C(F)(F)F (centres unmarked) = 2.17[b]
• O=C(NCC(F)(F)F)c1cccc(Nc2ncc(Br)c(NC3CCC3)n2)c1 = 2.21[b]
• COC(=O)c1ccc(Nc2ncc(Br)c(NC3CCC3)n2)cc1Cl = 3.59[b]
• FC1(F)Oc2ccc(Nc3ncc(Br)c(NC4CCC4)n3)cc2OC1(F)F = 4.56[b]

Hey, can you go through the list below and give me log p for every item?
1. CSc1ccc(Nc2ncc(Cl)c(NC3CCC3)n2)cc1
2. CC(C)(C)C(=O)Nc1ccc(Nc2ncc(Cl)c(NC3CCC3)n2)cc1
3. CC(C)(C)OC(=O)Nc1ccc(Nc2ncc(Br)c(NC3CCC3)n2)cc1
4. CNc1cccc(Nc2ncc(Cl)c(NC3CCC3)n2)c1
5. CCOC(=O)Nc1ccc(Nc2ncc(Cl)c(NC3CCC3)n2)cc1
6. C=CCNC(=O)c1ccc(Nc2ncc(C(F)(F)F)c(NC3CCC3)n2)cc1

2.33[b]
1.94[b]
2.36[b]
1.49[b]
1.8[b]
2.79[b]

Required: log p, one value per compound below.
1. O=S1(=O)Cc2ccc(Nc3ncc(Br)c(NC4CCC4)n3)cc2C1
2. C=CCNC(=O)c1ccc(Nc2ncc(Br)c(NC3CCC3)n2)cc1

1. 1.78[b]
2. 1.99[b]

---

assay: logP by LC-MS, method [b], acidic range pH 2.7; assay type: physicochemical; details: pH 2.7
VALUE_KIND: log p

- CC(C)Oc1ccc(Nc2ncc(Cl)c(NC3CCC3)n2)cc1.Cl [Compound 36]: 2.44[b]
- O=CNc1ccc(Nc2ncc(Br)c(NC3CCC3)n2)cc1 [Compound 152]: 1.47[b]
- Brc1cnc(Nc2ccc3cc[nH]c3c2)nc1NC1CCC1 [Compound 2]: 1.7[b]

Record log p per entry; entries follow.
1. O=S1(=O)CCCN1c1cccc(Nc2ncc(Cl)c(NC3CCC3)n2)c1 [Compound 257]
2. O=c1[nH]c2ccc(Nc3ncc(Cl)c(NC4CCC4)n3)cc2o1 [compound 8]
3. Brc1cnc(Nc2ccc(-c3cscn3)cc2)nc1NC1CCC1 [Compound 74]
4. O=CNc1cccc(Nc2ncc(Br)c(NC3CCC3)n2)c1 [Compound 154]

["1.74[b]", "1.55[b]", "2.26[b]", "1.58[b]"]

For every item in the list below, what is its measured log p?
1. FC(F)(F)Oc1ccc(Nc2ncc(Br)c(NC3CCC3)n2)cc1 [compound 183]
2. CSc1cccc(Nc2ncc(Br)c(NC3CCC3)n2)c1 [Compound 44]
3. CS(=O)(=O)Cc1cccc(Nc2ncc(Br)c(NC3CCC3)n2)c1 [Compound 88]
4. CC(=O)Nc1cc(Nc2ncc(Br)c(NC3CCC3)n2)ccc1C [Compound 200]
5. CC(C)(CF)C(=O)Nc1cccc(Nc2ncc(Br)c(NC3CCC3)n2)c1 [Compound 166]
6. CC(=O)Nc1ccc(Nc2ncc(Br)c(NC3CCC3)n2)cc1Cl [Compound 186]
7. OCc1cccc(Nc2ncc(Br)c(NC3CCC3)n2)c1 [Compound 185]

["3.73[b]", "2.92[b]", "1.66[b]", "1.58[b]", "2.09[b]", "1.97[b]", "1.44[b]"]
